Consider the following binders and their measured koff readings.
target: T1, human TSLP (human, UniProt Q969D9 29-159); assay: SPR
T1 construct: also called hTSLP; rhTSLP
Number only, in s⁻¹; omit the unit.

Illustrative cases are given below, each with its answer.
[
  {
    "Binder": "BDG38.096 (antibody, V domains shown, IgG1) VH: QMQLVESGGGVVQPGRSLRLSCAASGFEFRTYGMHWVRQAPGKGLEWVAVIWDDGSNTHYADSVKGRFTITRDNSKNTLNLQMNSLRVEDTAVYYCVRAPQWYLTAEAFDLWGQGTMVTVSS VL: SYILTQPPSVSVAPGETARITCGGNLIGARLVHWYQQKPGQAPVLVIYDDSDRPSRIPERFSGSNIGNTATLTISRVEEGDEADYYCQVWDYSSDSMVFGGGTKLTVL",
    "Unit symbol": "s⁻¹",
    "koff": 0.000133
  },
  {
    "Binder": "BDG38.098 (antibody, V domains shown, IgG1) VH: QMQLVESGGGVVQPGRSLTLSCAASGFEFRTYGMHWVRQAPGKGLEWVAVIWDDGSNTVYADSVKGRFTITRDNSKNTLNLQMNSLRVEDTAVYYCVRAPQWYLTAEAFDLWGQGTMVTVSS VL: SYVLTQPPSVSVAPGQTATITCGGNLIGARLVHWYQQKPGQAPVLVIYDDSDRPSRIPERFSGSNIGNTATLTISRVEAGDEADYYCQVWDYSSDSMVFGGGTKLTVL",
    "Unit symbol": "s⁻¹",
    "koff": 0.000237
  }
]

Next item in the queue.
[in] Would you mind telling me what koff value was observed for BDG38.117 (antibody, V domains shown, IgG1) VH: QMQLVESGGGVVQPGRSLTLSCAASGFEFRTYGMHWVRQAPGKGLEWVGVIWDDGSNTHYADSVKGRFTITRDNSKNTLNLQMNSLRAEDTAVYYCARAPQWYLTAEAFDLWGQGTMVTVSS VL: SYVLTQPPSVSVAPGETATITCGGNLIGAKLVHWYQQKPGQAPVLVIYDDSDRPSRIPERFSGSNIGNTATLTIEDVEAGDEADYYCQVWDYSSDTMVFGGGTKLTVL ?
[out] 2.7e-05
